- target.entity: PDK1 (Homo sapiens (Human))
- measurement.description: PDK1 kinase assay (coupled PDK1/AKT/FAM-crosstide assay, IMAP fluorescence polarization)
- Type: biochemical
- experimental.conditions: inhibition of phospo-PDK1 in vitro
pIC50: −log10 of the molar value.
Each entry below lists one item and its recorded pIC50 value.

compound.smiles: O=C(NCc1ccc(F)c(F)c1)c1cccnc1NCc1ccc(-c2ccc3ncnc(NC4CC4)c3c2)s1
pIC50: > 7.00
--
compound.smiles: C[C@H](NC(=O)c1cccnc1NCc1ccc(-c2c[nH]c(=O)c3ccccc23)s1)c1ccc(F)cc1
pIC50: 5.30 to 6.00
--
compound.smiles: C[C@H](NC(=O)c1cccnc1N[C@@H](COc1ccc([N+](=O)[O-])c(N)c1)c1cccc(Cl)c1)c1ccc(F)c(F)c1
pIC50: < 5.30
--
compound.smiles: C[C@H](NC(=O)c1cc(C(F)(F)F)cnc1NCc1ccc(-c2cc3c(N)ncnc3cn2)s1)c1ccc(F)cc1
pIC50: 6.00 to 7.00
--
compound.smiles: Nc1ncnc2ccc(-c3ccc(CNc4nccc5c4C(=O)N(Cc4ccc(F)c(F)c4)CC5)s3)cc12
pIC50: > 7.00
--
compound.smiles: Nc1ncnc2ccc(-n3cc(CNc4ncccc4C(=O)NCc4ccc(F)c(F)c4)nn3)cc12
pIC50: 6.00 to 7.00
--
compound.smiles: CNC(=O)c1cc(S(=O)(=O)NCc2ccccc2)cnc1NCc1ccc(-c2ccc3ncnc(N)c3c2)s1
pIC50: > 7.00

---

Parameter: pIC50. Scope: all listed entries.
- target.entity: PDK1 (Homo sapiens (Human), UniProt O15530)
- Sequence (O15530 51-359): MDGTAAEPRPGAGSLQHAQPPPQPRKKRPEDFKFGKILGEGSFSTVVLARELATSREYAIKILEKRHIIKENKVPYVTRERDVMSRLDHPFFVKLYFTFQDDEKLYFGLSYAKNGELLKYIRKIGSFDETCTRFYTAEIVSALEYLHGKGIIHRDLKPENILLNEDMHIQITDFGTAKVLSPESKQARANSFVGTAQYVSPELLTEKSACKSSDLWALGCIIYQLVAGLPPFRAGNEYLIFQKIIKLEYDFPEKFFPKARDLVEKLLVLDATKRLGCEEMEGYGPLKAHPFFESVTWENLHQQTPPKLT
- measurement.description: PDK1 kinase assay (coupled PDK1/AKT/FAM-crosstide assay, IMAP fluorescence polarization)
- Type: biochemical
- experimental.conditions: inhibition of phospo-PDK1 in vitro
pIC50: −log10 of the molar value. Counter-ions that a name gives are not always drawn.
endpoint.name: pIC50

compound: CC(C)(C)Nc1ncnc2ccc(-c3ccc(CNc4ncccc4C(=O)NCc4ccc(F)c(F)c4)s3)cc12 [Example 4.23]
endpoint.name: pIC50
meas.value: 5.30 to 6.00
--
compound: C[C@H](NC(=O)c1cc(C#N)cnc1NCc1ccc(-c2ccc3ncnc(N)c3c2)s1)c1ccc(F)c(F)c1 [Example 8.8.2]
endpoint.name: pIC50
meas.value: > 7.00
--
compound: CCC(C)n1cc(-c2ccc(CNc3ncc(C(F)(F)F)cc3C(=O)Nc3ccc(F)cc3)cc2)c2c(N)ncnc21 (centres unmarked) [Example 441]
endpoint.name: pIC50
meas.value: > 7.00
--
compound: Nc1ncnc2ccc(-c3ccc(CNc4ncc(S(=O)(=O)N5CCCCC5)cc4C(=O)NCc4ccc(F)c(F)c4)s3)cc12 [Example 8.6.8]
endpoint.name: pIC50
meas.value: 6.00 to 7.00
--
compound: O=C1Nc2cc(/C=C/CNc3ncccc3C(=O)NCc3ccc(F)c(F)c3)ccc2/C1=C/c1ncc[nH]1 [Example 15.12]
endpoint.name: pIC50
meas.value: > 7.00
--
compound: C=C(C)c1cnc(NCc2ccc(-c3ccc4ncnc(N)c4c3)s2)c(C(=O)NCc2ccc(F)c(F)c2)c1 [Ex. 8.13]
endpoint.name: pIC50
meas.value: > 7.00
--
compound: C[C@H](NC(=O)c1cccnc1NCc1ccc(-c2ccc3nc(N)[nH]c3c2)s1)c1ccc(F)cc1 [Example 2.21]
endpoint.name: pIC50
meas.value: 5.30 to 6.00
--
compound: O=C(c1cccnc1NCc1cccc(-c2c[nH]c3ncccc23)c1)N1CCCCC1 [Example 1.13]
endpoint.name: pIC50
meas.value: < 5.30
--
compound: Nc1ncnc2ccc(-c3ccc(CNc4ncccc4C(=O)NCc4cc(F)c(F)c(F)c4)s3)cc12 [Example 3.23, (TFA salt)]
endpoint.name: pIC50
meas.value: > 7.00
--
compound: C[C@H](NC(=O)c1nc(C#N)cnc1NCc1ccc(-c2cnc3[nH]nc(N)c3c2)cc1)c1ccc(F)c(F)c1 [Example 25]
endpoint.name: pIC50
meas.value: > 7.00
--
compound: Cc1nc(/C=C2\C(=O)Nc3cc(/C=C/CNc4ncccc4C(=O)NCc4ccc(F)c(F)c4)ccc32)[nH]c1C [Example 15.13]
endpoint.name: pIC50
meas.value: > 7.00
--
compound: CCOc1ccnc(NCc2ccc(-c3ccc4ncnc(N)c4c3)s2)c1C(=O)NCc1ccc(F)c(F)c1 [Ex. 7.5]
endpoint.name: pIC50
meas.value: 6.00 to 7.00
--
compound: CC(C)Oc1cc(CNc2ncccc2C(=O)NCc2ccc(F)c(F)c2)cc(-c2c[nH]c3ncccc23)c1 [Example 5.7]
endpoint.name: pIC50
meas.value: > 7.00
--
compound: Cc1nc2cnc3ccc(-c4ccc(CNc5ncccc5C(=O)N[C@@H](C)c5ccc(F)cc5)s4)cc3c2n1C [Example 2.19]
endpoint.name: pIC50
meas.value: 6.00 to 7.00
